Test system: B. subtilis strain NCBI3610
ASSAY OVERVIEW: Biofilm (pellicle) inhibition assay, B. subtilis in liquid biofilm-inducing medium
Assay type: cell-based, Bacillus subtilis
STATED CONDITIONS: library of polyamines, structure-activity
MEASURE: biofilm-inhibitory activity against B. subtilis

SMILES RECORD | REPORTED
Cc1c(Cc2[nH]c(C(=O)OC(C)(C)C)c(C)c2C)[nH]c(Cc2[nH]c(C(=O)OC(C)(C)C)c(C)c2C)c1C | active
c1cc2ccc1CNCCCNCCCNCc1ccc(cc1)CNCCCNCCCNC2 | active
CCCCCCCCCCCCNCCCNCCCNCCCCCCCCCCCC | active
